Tested on: Leishmania donovani
Measurement Notes: Antileishmanial activity against Leishmania donovani MHOM/SD/00/1S-2D promastigotes assessed as parasite death at 10 uM after 72 hrs
Assay type: functional
Parameter Measured: Activity
Note: state the figure and append the unit.

What does the record list as Activity for COc1ccc2nc3cc(Cl)ccc3c(NCCCCN(CCCNc3c4ccc(Cl)cc4nc4ccc(OC)cc34)C(=O)[C@H](C)N)c2c1 ?
93%

Would you mind doing COc1ccc2nc3cc(Cl)ccc3c(NCCNCCCNCCNc3c4ccc(Cl)cc4nc4ccc(OC)cc34)c2c1 as well?
99%

Request: COc1ccc2nc3cc(Cl)ccc3c(NCCCCN(CCCNc3c4ccc(Cl)cc4nc4ccc(OC)cc34)C(=O)CNC(=O)[C@H](C)NC(=O)OC(C)(C)C)c2c1
37%

What about COc1ccc2nc3cc(Cl)ccc3c(NCCNCCNc3c4ccc(Cl)cc4nc4ccc(OC)cc34)c2c1 ?
47%

Okay, and C[C@@H]1[C@H](O)[C@@H](C)/C=C/C=C/C=C/C=C/C=C/C=C/C=C/[C@H](O[C@@H]2O[C@H](C)[C@@H](O)[C@H](N)[C@@H]2O)C[C@@H]2O[C@](O)(C[C@@H](O)C[C@@H](O)[C@H](O)CC[C@@H](O)C[C@@H](O)CC(=O)O[C@H]1C)C[C@H](O)[C@H]2C(=O)O ?
100%

---

Catalogue of Activity readings, one per entry.
System: MRC5
Measurement Notes: Toxicity against human MRC5 cells at 3.13 uM
Assay type: cell-based
Condition Summary: mrc5, 3.13 µM
Could you kindly put the unit after your number?

COc1ccc2nc3cc(Cl)ccc3c(NCCNCCNc3c4ccc(Cl)cc4nc4ccc(OC)cc34)c2c1 ... 100%
COc1ccc2nc3cc(Cl)ccc3c(NCCCCCCCCNc3c4ccc(Cl)cc4nc4ccc(OC)cc34)c2c1 ... 20%
COc1ccc2nc3cc(Cl)ccc3c(NCCCN3CCN(CCCNc4c5ccc(Cl)cc5nc5ccc(OC)cc45)CC3)c2c1 ... 0%
COc1ccc2nc3cc(Cl)ccc3c(NCCCNCCCNc3c4ccc(Cl)cc4nc4ccc(OC)cc34)c2c1 ... 100%

Quick check: Activity of COc1ccc2nc3cc(Cl)ccc3c(NCCCCCCCCCCNc3c4ccc(Cl)cc4nc4ccc(OC)cc34)c2c1 ?
0%

Queued: COc1ccc2nc3cc(Cl)ccc3c(NCCCCNCCCNc3c4ccc(Cl)cc4nc4ccc(OC)cc34)c2c1
100%

Now this one: COc1ccc2nc3cc(Cl)ccc3c(NCCCCN(CCCNc3c4ccc(Cl)cc4nc4ccc(OC)cc34)C(=O)[C@H](C)NC(=O)OC(C)(C)C)c2c1
0%

---

System: Trichomonas vaginalis
Measurement Notes: Antimicrobial activity against Trichomonas vaginalis G3 assessed as parasite death at 10 uM after 24 hrs
Assay type: functional
Grouping key: Activity. Bins: bottom end (below 20%), midrange (20% to below 80%), top end (80% or more)

As a guide, the following entries are already answered.
COc1ccc2nc3cc(Cl)ccc3c(NCCCCN(CCCNc3c4ccc(Cl)cc4nc4ccc(OC)cc34)C(=O)CNC(=O)[C@H](C)NC(=O)OC(C)(C)C)c2c1 ... midrange
COc1ccc2nc3cc(Cl)ccc3c(NCCCCCCCCNc3c4ccc(Cl)cc4nc4ccc(OC)cc34)c2c1 ... top end
COc1ccc2nc3cc(Cl)ccc3c(NCCCNCCCNCCCNc3c4ccc(Cl)cc4nc4ccc(OC)cc34)c2c1 ... bottom end
COc1ccc2nc3cc(Cl)ccc3c(NCCCNCCCNc3c4ccc(Cl)cc4nc4ccc(OC)cc34)c2c1 ... midrange

Quick check: band for COc1ccc2nc3cc(Cl)ccc3c(NCCNCCNc3c4ccc(Cl)cc4nc4ccc(OC)cc34)c2c1
bottom end

Thanks! And COc1ccc2nc3cc(Cl)ccc3c(NCCCCNCCCNc3c4ccc(Cl)cc4nc4ccc(OC)nc34)c2n1 ?
top end

---

System: Leishmania donovani
Measurement Notes: Antileishmanial activity against Leishmania donovani MHOM/SD/00/1S-2D promastigotes assessed as parasite death at 10 uM after 72 hrs
Format: functional
Parameter Measured: Activity
Your answer should be a number followed by the unit of measure.

COc1ccc2nc3cc(Cl)ccc3c(NCCCCCCCCCCNc3c4ccc(Cl)cc4nc4ccc(OC)cc34)c2c1 ... 96%
COc1ccc2nc3cc(Cl)ccc3c(NCCCCNCCCCCNCCCNc3c4ccc(Cl)cc4nc4ccc(OC)cc34)c2c1 ... 98%
COc1ccc2nc3cc(Cl)ccc3c(NCCCNCCCNCCCNc3c4ccc(Cl)cc4nc4ccc(OC)cc34)c2c1 ... 73%
COc1ccc2nc3cc(Cl)ccc3c(NCCCN(C)CCCNc3c4ccc(Cl)cc4nc4ccc(OC)cc34)c2c1 ... 99%

Now turn to the next compound.
Record lookup: for Leishmania donovani, what Activity belongs to COc1ccc2nc3cc(Cl)ccc3c(NCCCCCCCCNc3c4ccc(Cl)cc4nc4ccc(OC)cc34)c2c1 ?
99%

---

Measurement Notes: Cytotoxicity against human HL60 cells
Assay type: cell-based, HL-60
Condition Summary: human, HL-60 cells; read-out: MIC
Parameter Measured: MCC

Known MCC results, listed for orientation:
COc1ccc2nc3cc(Cl)ccc3c(NCCCNCCCNc3c4ccc(Cl)cc4nc4ccc(OC)cc34)c2c1 ... 10 µM
COc1ccc2nc3cc(Cl)ccc3c(NCCCN(C)CCCNc3c4ccc(Cl)cc4nc4ccc(OC)cc34)c2c1 ... 10 µM
COc1ccc2nc3cc(Cl)ccc3c(NCCCCCCCCCCNc3c4ccc(Cl)cc4nc4ccc(OC)cc34)c2c1 ... 10 µM

Request the reported MCC associated with Nc1nc(N)nc(Nc2ccc([As]3SCC(CO)S3)cc2)n1 (centres undefined) [MELARSOPROL]
100 µM

Moving on to the next compound: COc1ccc2nc3cc(Cl)ccc3c(NCCCCN(CCCNc3c4ccc(Cl)cc4nc4ccc(OC)cc34)C(=O)CNC(=O)[C@H](C)N)c2c1
> 10 µM

COc1ccc2nc3cc(Cl)ccc3c(NCCCCNCCCNc3c4ccc(Cl)cc4nc4ccc(OC)cc34)c2c1 ?
10 µM

Okay, and COc1ccc2nc3cc(Cl)ccc3c(NCCCNCCCNCCCNc3c4ccc(Cl)cc4nc4ccc(OC)cc34)c2c1 ?
10 µM

Also, COc1ccc2nc3cc(Cl)ccc3c(NCCCCN(CCCNc3c4ccc(Cl)cc4nc4ccc(OC)cc34)C(=O)[C@H](C)N)c2c1 please.
10 µM

---

System: Leishmania donovani
Measurement Notes: Antileishmanial activity against Leishmania donovani MHOM/SD/00/1S-2D promastigotes assessed as parasite death at 10 uM after 72 hrs
Type: functional
Parameter Measured: Activity (%)
Answer with a number only, understood to be in %.

COc1ccc2nc3cc(Cl)ccc3c(NCCCCCCCCNc3c4ccc(Cl)cc4nc4ccc(OC)nc34)c2n1 ... 42
COc1ccc2nc3cc(Cl)ccc3c(NCCOCCOCCNc3c4ccc(Cl)cc4nc4ccc(OC)cc34)c2c1 ... 96
COc1ccc2nc3cc(Cl)ccc3c(NCCCCN(CCCNc3c4ccc(Cl)cc4nc4ccc(OC)cc34)C(=O)CNC(=O)[C@H](C)N)c2c1 ... 16
COc1ccc2nc3cc(Cl)ccc3c(NCCCNCCCNc3c4ccc(Cl)cc4nc4ccc(OC)cc34)c2c1 ... 95

Okay, now this compound:
# get_value(readout='Activity', item= COc1ccc2nc3cc(Cl)ccc3c(NCCCCN(CCCNc3c4ccc(Cl)cc4nc4ccc(OC)cc34)C(=O)[C@H](C)NC(=O)OC(C)(C)C)c2c1 )
49

---

Catalogue of compounds with associated Activity
Test system: Trichomonas vaginalis
Measurement Notes: Antimicrobial activity against Trichomonas vaginalis G3 assessed as parasite death at 10 uM after 24 hrs
Format: functional
The reply should contain only the number, in %.

Name the recorded Activity for COc1ccc2nc3cc(Cl)ccc3c(NCCCCN(CCCNc3c4ccc(Cl)cc4nc4ccc(OC)cc34)C(=O)[C@H](C)N)c2c1 .
80

Next compound: COc1ccc2nc3cc(Cl)ccc3c(NCCCCN(CCCNc3c4ccc(Cl)cc4nc4ccc(OC)cc34)C(=O)[C@H](C)NC(=O)OC(C)(C)C)c2c1
95

Likewise for COc1ccc2nc3cc(Cl)ccc3c(NCCCCNCCCNc3c4ccc(Cl)cc4nc4ccc(OC)cc34)c2c1 ?
3

---

Measurement Notes: Cytotoxicity against human HL60 cells
Format: cell-based, HL-60
Condition Summary: human, HL-60 cells; read-out: MIC
Parameter Measured: MCC (µM)
Express your answer in µM, writing the number without its unit.

Recorded MCC, per entry:
COc1ccc2nc3cc(Cl)ccc3c(NCCCCN(CCCNc3c4ccc(Cl)cc4nc4ccc(OC)cc34)C(=O)CNC(=O)[C@H](C)NC(=O)OC(C)(C)C)c2c1 ... 10
COc1ccc2nc3cc(Cl)ccc3c(NCCCN3CCN(CCCNc4c5ccc(Cl)cc5nc5ccc(OC)cc45)CC3)c2c1 ... 10

For the compound shown here, CCCN(CCCCNc1c2ccc(Cl)cc2nc2ccc(OC)cc12)CCCNc1c2ccc(Cl)cc2nc2ccc(OC)cc12 , give the reported MCC.
10

What about COc1ccc2nc3cc(Cl)ccc3c(NCCCCNCCCCCNCCCNc3c4ccc(Cl)cc4nc4ccc(OC)cc34)c2c1 ?
10

What do we get for COc1ccc2nc3cc(Cl)ccc3c(NCCCCNCCCNc3c4ccc(Cl)cc4nc4ccc(OC)nc34)c2n1 ?
7
